src = PubChem BioAssay (Tox21)

Target: Estrogen receptor beta (Homo sapiens) (UniProt Q92731)
Sequence (Q92731 whole entry, looked up): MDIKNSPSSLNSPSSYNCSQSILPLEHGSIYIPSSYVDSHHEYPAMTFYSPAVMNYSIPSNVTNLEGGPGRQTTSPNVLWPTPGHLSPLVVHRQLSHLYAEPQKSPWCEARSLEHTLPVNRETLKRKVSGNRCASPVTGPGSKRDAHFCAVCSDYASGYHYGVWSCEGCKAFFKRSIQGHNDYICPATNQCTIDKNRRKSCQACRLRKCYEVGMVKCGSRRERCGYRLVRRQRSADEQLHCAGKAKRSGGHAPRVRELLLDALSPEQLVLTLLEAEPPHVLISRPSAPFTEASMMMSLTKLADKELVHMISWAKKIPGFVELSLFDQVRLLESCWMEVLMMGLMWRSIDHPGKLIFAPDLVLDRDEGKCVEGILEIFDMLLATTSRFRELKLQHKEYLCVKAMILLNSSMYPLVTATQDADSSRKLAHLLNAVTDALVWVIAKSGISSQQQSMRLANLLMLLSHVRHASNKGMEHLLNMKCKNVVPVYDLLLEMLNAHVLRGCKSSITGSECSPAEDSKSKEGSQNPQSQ
Assay: qHTS assay to identify small molecule antagonists of the estrogen receptor beta (ER-beta) signaling pathway (AID 1259378); further: on the % scale 0 is the no-effect control and ±100 the full control effect
Settings: ER-beta-UAS-bla HEK293T, beta-lactamase FRET ratio, 16 h; series mostly up to 92.4 µM
Source text: National Center for Advancing Translational Sciences [NCATS] NIH Chemical Genomics Center [NCGC] U.S. Environmental Protection Agency [EPA] National Institutes of Environmental Health Sciences [NIEHS] National Toxicology Program [NTP] U.S. Food and Drug Administration [FDA] Estrogen receptor (ER), a nuclear hormone receptor, plays an important role in development, metabolic homeostasis and reproduction. […]
Inconclusive results are not listed. Calls of active or inactive are those of the source. The call rests on the fitted dose curve; in most records, active means well fitted inhibition curve with a large enough effect in the signal ratio in the repeat runs (not every such curve was filed as active); inconclusive means weak or mixed curves, or effect the other way; inactive means no such curve, though single readings can be large or run the other way; the % refers to the signal ratio.
Reply using exactly one outcome from 1 (active), -1 (inactive)

Answered cases to consult:
INPUT: Hi, sorry to bother you, what did the test record for O=NN1CCOCC1 ?
OUTPUT: -1

INPUT: // outcome(item) with item = COc1ccc(CO)cc1
OUTPUT: -1

INPUT: Field: outcome | Entry: c1ccc2c(c1)Nc1ccccc1S2
OUTPUT: -1

INPUT: Hi, do you know how Clc1cccc(Cl)c1 came out in this test?
OUTPUT: -1

***
INPUT: Recorded test outcome, item CC(C)Nc1nc(Cl)nc(NC(C)C)n1
OUTPUT: -1

INPUT: For Brc1ccc(Br)cc1 , what call appears in the results of this test?
OUTPUT: -1

INPUT: Identify the outcome logged in this assay for the molecule shown: C=CC(Cl)CCl (stereo unspecified)
OUTPUT: -1

INPUT: Write down the call the test reported for this molecule. Item: COc1ccc(O)c(C(C)(C)C)c1
OUTPUT: -1

INPUT: Please indicate how the test categorized COC(=O)Nc1nc2ccccc2[nH]1 .
OUTPUT: -1

* * *

test: qHTS assay to identify small molecule antagonists of the thyroid receptor (TR) signaling pathway (AID 743065); conditions: GH3.TRE-Luc, T3-stimulated luciferase inhibition, 23.5 h; series mostly up to 70.3 µM; further: nearly all actives have a fitted effect of over 55% in size
Records with an inconclusive call do not appear. Calls of active or inactive are those of the source. The call rests on the fitted dose curve; in most records, active means well fitted inhibition curve with a large enough effect in the repeat runs; inconclusive means weak or mixed curves; inactive means no such curve, though single readings can be large or run the other way.
Pick one and only one: active, inactive

INPUT: Which outcome was assigned to CC(C)COC(=O)c1ccccc1C(=O)OCC(C)C in this test?
OUTPUT: inactive

INPUT: Kindly provide the recorded test outcome for the following compound: CCC(=O)Nc1ccc(Cl)c(Cl)c1
OUTPUT: active

INPUT: What outcome does the record of this test show for CCNCC ?
OUTPUT: inactive

INPUT: State the result this test recorded for [Cl-].[Cl-].[Cl-].[Fe+3] .
OUTPUT: inactive

INPUT: Short answer needed: outcome of this test for CCOP(=O)(OCC)OCC ?
OUTPUT: inactive

New cases:
INPUT: Record request — test call for Oc1ccc(Cl)cc1Cl
OUTPUT: inactive

INPUT: Status in this test for ClCc1ccccn1 ?
OUTPUT: inactive

INPUT: Give the logged outcome of this assay for the following compound: CS(=O)(=O)NC(=O)c1cc(Oc2ccc(C(F)(F)F)cc2Cl)ccc1[N+](=O)[O-]
OUTPUT: inactive

INPUT: Check the results log: what was the call for CCC1(c2ccc(N)cc2)CCC(=O)NC1=O (configuration not stated) ?
OUTPUT: inactive

INPUT: Tell me the recorded outcome of this test for ClCC(Cl)CCl .
OUTPUT: inactive

INPUT: I would be grateful if you could indicate the recorded call for Clc1cccc(C(Cl)(Cl)Cl)n1 .
OUTPUT: inactive

INPUT: Called result for O=NN(c1ccccc1)c1ccccc1
OUTPUT: inactive
